B1: MNAT1 (parent)
chain: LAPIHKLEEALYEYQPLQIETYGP

Variants of: B1
TEST PROTOCOL: protein stability index of a GFP-peptide fusion (GPS, HEK-293T) (PSI 1-6); higher = more stable;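 note: lentivirally expressed fusions sorted by FACS into six bins by GFP to DsRed ratio, PSI derived from sequencing read proportions per bin multiplied by bin number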
CONDITIONS: c terminus: a fixed tail appended
Overview of reported protein stability index across a group of variants:
MEASURED METRIC: protein stability index

INPUT SEQUENCE: LAPIHKKEEALYEYQPLQIETYGP [L7K]
VAL: 3.54

INPUT SEQUENCE: LAPIHKFEEALYEYQPLQIETYGP [L7F]
VAL: 2.37

INPUT SEQUENCE: QAPIHKLEEALYEYQPLQIETYGP [L1Q]
VAL: 2.47

INPUT SEQUENCE: YAPIHKLEEALYEYQPLQIETYGP [L1Y]
VAL: 2.12

INPUT SEQUENCE: LAPIHKLEEALYEYQPLQIETYVP [G23V]
VAL: 2.79

INPUT SEQUENCE: LADIHKLEEALYEYQPLQIETYGP [P3D]
VAL: 1.46

INPUT SEQUENCE: LAPIHKLEERLYEYQPLQIETYGP [A10R]
VAL: 2.05

INPUT SEQUENCE: LAPIHKLEEALYEYQPLQIEHYGP [T21H]
VAL: 1.62

INPUT SEQUENCE: LAPIHKLEGALYEYQPLQIETYGP [E9G]
VAL: 2.62

INPUT SEQUENCE: LAPIHKLEEALYEPQPLQIETYGP [Y14P]
VAL: 2.94

INPUT SEQUENCE: LAPICKLEEALYEYQPLQIETYGP [H5C]
VAL: 1.64

INPUT SEQUENCE: LAPIHKLDEALYEYQPLQIETYGP [E8D]
VAL: 2.52

INPUT SEQUENCE: LAPIEKLEEALYEYQPLQIETYGP [H5E]
VAL: 1.92

INPUT SEQUENCE: LAPIHKLEEALQEYQPLQIETYGP [Y12Q]
VAL: 1.88

INPUT SEQUENCE: LAPIHKLEEALYEYQPLNIETYGP [Q18N]
VAL: 1.92

INPUT SEQUENCE: LAPIHKLEEALYEYQPLQYETYGP [I19Y]
VAL: 1.92

INPUT SEQUENCE: LAPIHKLEEALYEYQPLQIQTYGP [E20Q]
VAL: 2.19

INPUT SEQUENCE: LAPIHSLEEALYEYQPLQIETYGP [K6S]
VAL: 2.24

INPUT SEQUENCE: LAPIHKLEEALYEWQPLQIETYGP [Y14W]
VAL: 2.28

INPUT SEQUENCE: LAPIPKLEEALYEYQPLQIETYGP [H5P]
VAL: 1.84

INPUT SEQUENCE: LAPIHKLEEALYEYQPLQWETYGP [I19W]
VAL: 2.32

INPUT SEQUENCE: LAPIHKLEEALYEYQPLQIPTYGP [E20P]
VAL: 2.59

INPUT SEQUENCE: LAPIRKLEEALYEYQPLQIETYGP [H5R]
VAL: 2.56

INPUT SEQUENCE: LAPCHKLEEALYEYQPLQIETYGP [I4C]
VAL: 2.49

INPUT SEQUENCE: LAPIHKLEEAPYEYQPLQIETYGP [L11P]
VAL: 3.17

INPUT SEQUENCE: LAPIHKLEEALYEYQILQIETYGP [P16I]
VAL: 2.79

INPUT SEQUENCE: LAPIHTLEEALYEYQPLQIETYGP [K6T]
VAL: 1.84

INPUT SEQUENCE: LAPIHKLEEALYWYQPLQIETYGP [E13W]
VAL: 2.08

INPUT SEQUENCE: LAPIHKLEAALYEYQPLQIETYGP [E9A]
VAL: 2.48

INPUT SEQUENCE: LAPIHKLEWALYEYQPLQIETYGP [E9W]
VAL: 2.08

INPUT SEQUENCE: LAPIHKLEECLYEYQPLQIETYGP [A10C]
VAL: 2.09

INPUT SEQUENCE: LAPIHKLEEALEEYQPLQIETYGP [Y12E]
VAL: 2.65

INPUT SEQUENCE: LAAIHKLEEALYEYQPLQIETYGP [P3A]
VAL: 2.23

INPUT SEQUENCE: LAGIHKLEEALYEYQPLQIETYGP [P3G]
VAL: 2.02

INPUT SEQUENCE: LAPWHKLEEALYEYQPLQIETYGP [I4W]
VAL: 1.59

INPUT SEQUENCE: LAPIHKLEEALYEYQPLQIEEYGP [T21E]
VAL: 1.8

INPUT SEQUENCE: EAPIHKLEEALYEYQPLQIETYGP [L1E]
VAL: 2.52

INPUT SEQUENCE: LAPIHKLEEALYEYQPLQITTYGP [E20T]
VAL: 1.28

INPUT SEQUENCE: LAPIHKLEEALYEYIPLQIETYGP [Q15I]
VAL: 1.66

INPUT SEQUENCE: LAPIHKCEEALYEYQPLQIETYGP [L7C]
VAL: 2.69

INPUT SEQUENCE: LAPIHKLEEALYEYQPLQIETYGT [P24T]
VAL: 1.87

INPUT SEQUENCE: LAPIHWLEEALYEYQPLQIETYGP [K6W]
VAL: 2.4

INPUT SEQUENCE: LAPIHKLEEALYEYQPLQIETYGQ [P24Q]
VAL: 1.75

INPUT SEQUENCE: LAPIVKLEEALYEYQPLQIETYGP [H5V]
VAL: 1.49

INPUT SEQUENCE: LAPIHKLEEALLEYQPLQIETYGP [Y12L]
VAL: 2.21

INPUT SEQUENCE: LAPIHKLEEALYEYQPLFIETYGP [Q18F]
VAL: 2.9

INPUT SEQUENCE: DAPIHKLEEALYEYQPLQIETYGP [L1D]
VAL: 2.31

INPUT SEQUENCE: LAPIHKLEEALYEYQSLQIETYGP [P16S]
VAL: 2.57

INPUT SEQUENCE: LAPIHKLIEALYEYQPLQIETYGP [E8I]
VAL: 3.59

INPUT SEQUENCE: LDPIHKLEEALYEYQPLQIETYGP [A2D]
VAL: 1.77

INPUT SEQUENCE: LAPIHKLEEALYVYQPLQIETYGP [E13V]
VAL: 2.04

INPUT SEQUENCE: LAPIHKLMEALYEYQPLQIETYGP [E8M]
VAL: 3.31

INPUT SEQUENCE: LAPIHKLEEALYEYVPLQIETYGP [Q15V]
VAL: 1.44

INPUT SEQUENCE: LAPIHKLEEANYEYQPLQIETYGP [L11N]
VAL: 3.41

INPUT SEQUENCE: LAPIHMLEEALYEYQPLQIETYGP [K6M]
VAL: 1.44

INPUT SEQUENCE: LAPIHKLEEALYEYQPLQIETTGP [Y22T]
VAL: 2.64

INPUT SEQUENCE: LAFIHKLEEALYEYQPLQIETYGP [P3F]
VAL: 2.67

INPUT SEQUENCE: LAPIHKLEEFLYEYQPLQIETYGP [A10F]
VAL: 2.45

INPUT SEQUENCE: LAPIHKLEEALYEYQPLQISTYGP [E20S]
VAL: 1.71

INPUT SEQUENCE: LAPIHKLEEALYEYQPTQIETYGP [L17T]
VAL: 2.47

INPUT SEQUENCE: LAPIHKLETALYEYQPLQIETYGP [E9T]
VAL: 2.16

INPUT SEQUENCE: LAPIHKLEEALYEYQPLSIETYGP [Q18S]
VAL: 1.86

INPUT SEQUENCE: LAPIHKLEEALYEYQPLQIEWYGP [T21W]
VAL: 3.09

INPUT SEQUENCE: LAPIHKMEEALYEYQPLQIETYGP [L7M]
VAL: 3.05

INPUT SEQUENCE: LAPIHKLEEALYEYQPLQIETAGP [Y22A]
VAL: 2.18

INPUT SEQUENCE: LAPIWKLEEALYEYQPLQIETYGP [H5W]
VAL: 2.34

INPUT SEQUENCE: LAPIHKLPEALYEYQPLQIETYGP [E8P]
VAL: 2.19

INPUT SEQUENCE: LAPIHKLEEALYEYQPLQIETYGI [P24I]
VAL: 2.04

INPUT SEQUENCE: LAPIYKLEEALYEYQPLQIETYGP [H5Y]
VAL: 1.61

INPUT SEQUENCE: LAPIHKLEEALYEYQPLQRETYGP [I19R]
VAL: 3.1

INPUT SEQUENCE: LAPRHKLEEALYEYQPLQIETYGP [I4R]
VAL: 2.75

meta.source: the supplement of paper PMC10567573
